Target: T1, topo VI KGRR-AAA (Methanosarcina mazei, UniProt Q8PUB7;Q8PUB8 1-369;1-621, K186A;R188A;R189A)
T1 sequence 1: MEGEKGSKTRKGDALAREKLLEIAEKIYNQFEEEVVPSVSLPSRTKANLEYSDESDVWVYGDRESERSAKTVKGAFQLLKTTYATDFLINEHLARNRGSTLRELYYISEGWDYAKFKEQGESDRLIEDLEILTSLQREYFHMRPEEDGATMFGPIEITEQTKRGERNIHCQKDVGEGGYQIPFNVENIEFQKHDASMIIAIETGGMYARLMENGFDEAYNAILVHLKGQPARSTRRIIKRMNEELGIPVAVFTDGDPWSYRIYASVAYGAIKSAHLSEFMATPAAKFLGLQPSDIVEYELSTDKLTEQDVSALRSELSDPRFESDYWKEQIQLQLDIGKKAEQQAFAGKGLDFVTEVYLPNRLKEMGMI
T1 sequence 2: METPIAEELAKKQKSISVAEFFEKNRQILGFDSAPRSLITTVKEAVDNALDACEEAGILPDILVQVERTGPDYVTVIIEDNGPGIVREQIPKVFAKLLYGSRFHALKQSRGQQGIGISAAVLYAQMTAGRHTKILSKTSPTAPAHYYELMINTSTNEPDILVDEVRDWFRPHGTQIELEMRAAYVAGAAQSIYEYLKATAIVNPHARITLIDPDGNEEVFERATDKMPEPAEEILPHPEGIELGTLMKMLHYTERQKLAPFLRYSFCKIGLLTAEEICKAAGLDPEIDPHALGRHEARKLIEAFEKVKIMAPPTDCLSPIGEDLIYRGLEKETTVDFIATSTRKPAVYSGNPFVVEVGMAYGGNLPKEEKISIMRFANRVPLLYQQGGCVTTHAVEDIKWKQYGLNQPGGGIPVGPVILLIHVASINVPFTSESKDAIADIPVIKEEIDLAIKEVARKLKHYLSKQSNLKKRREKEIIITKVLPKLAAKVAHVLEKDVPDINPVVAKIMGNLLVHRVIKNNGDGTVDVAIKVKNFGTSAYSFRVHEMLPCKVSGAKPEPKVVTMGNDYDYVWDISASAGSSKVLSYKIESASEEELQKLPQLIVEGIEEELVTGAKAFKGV
Test: fluorescence anisotropy; 10 mM Mg2+; ambiguous, poorly defined dFAmax; FA: 20 nM probe, 50 mM K-glutamate, 20 mM HEPES-KOH pH 7.5, 10 mM MgCl2, 5% glycerol, 1 mM TCEP, 0.1 mg/mL BSA; incubated on ice, read at ambient temperature; competition with 100 nM enzyme
Details: protein: recombinant; tags: N-terminal His6-TEV on Top6B, removed; chain copies: 2;2; label: 5'-FAM on S1; four-way Holliday junction, stacked-X, two GAAA-capped arms
pKd: −log10 of the molar value.
property.label: pKd

>>> measured("16 x 20 bp stacked junction (structured_DNA) DNA 1: CGAATACTCAGCTCAACCGAAAGGTTGAGCCTTCGCTCGAAAGAGCGAAGTACTCTTCCG DNA 2: CGGAAGAGTATGAGTATTCG")
"~6.12"
